All figures here come from patent US20260317430.

# tested.system: human FGFR2b extracellular domain (human, UniProt P21802)
# Sequence (P21802 22-377): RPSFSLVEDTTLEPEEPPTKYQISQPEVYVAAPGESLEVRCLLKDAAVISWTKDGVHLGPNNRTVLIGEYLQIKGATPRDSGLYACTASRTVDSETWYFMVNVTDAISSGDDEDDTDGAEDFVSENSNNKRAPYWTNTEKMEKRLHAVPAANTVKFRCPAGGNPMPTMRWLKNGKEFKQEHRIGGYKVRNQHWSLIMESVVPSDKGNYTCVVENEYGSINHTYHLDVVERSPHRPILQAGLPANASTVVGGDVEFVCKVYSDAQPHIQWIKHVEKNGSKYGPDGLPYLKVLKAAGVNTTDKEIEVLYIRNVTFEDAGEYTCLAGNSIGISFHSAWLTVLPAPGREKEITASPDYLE
# experiment.description: BLI
Attribute: Kd
Report the figure in nM without appending any unit label.

These solved cases illustrate the format of a correct answer.
# binder, assay.metric, meas.value
records = [
    ("3A3 (antibody, V domains shown) VH: QVQLQQSGAELVKPGASVKMSCKASGYTFTTYNIHWVRQTPGQGLEWIGLIYPDNGDTSYNQKFKAKATLTADKSSSTAYMHLSSLTSEDSAVYYCARGGFDYWGQGTTLTVSS VL: DIVMTQSHKFMSTSVGDRVSITCKASQDVNTDVSWYQQKPGQSPKLLIYSASYRYTGVPTRFTGSGSGTDFTFTISGVQAEDLADYYCQQHYNTPYTFGGGTRLEIK", "Kd", 3.71),
    ("3E2 (antibody, V domains shown) VH: EIQLQQSGAELVKPGASVKMSCKASGYTFSFYNMHWVKRTPGQGLEWIGLIYPDNGDTSYNQKFKGKATLTADTSSSTAYMQLSSLTSEDSAVYYCARGGLDYWGQGTSLTVSS VL: NIVMTQSQKFMSTSVGDRVSVTCKASQNVGTNVAWYQQKPGQSPKALIYSASYRYTGVPDRFTGSGSGTDFTFTISSVQAEDLAVYYCQQHYSTPYTFGGGTKLEIK", "Kd", 4.45),
    ("3F5 (antibody, V domains shown) VH: EIQLQQSGAELVKPGASVKMSCKASGYTFRYYNMHWVKRTPGQGLEWIGLIYPDNGDTSYNQKFKGKATLTADTSSSTAYMQLSSLTSEDSAVYYCARGGLDYWGQGTTLTVSS VL: DIVLTQSPASLSASVGETVTITCGASENIYGALNWYQRKQGKSPQLLIYGATNLADGMSSRFSGSGSGRQYSLKISSLHPDDVATYYCQNVLSTPYTFGGGTKLEIK", "Kd", 5.1),
    ("1A3 (antibody, V domains shown) VH: QVQLQQPGAELVKPGASVKMSCKASGYTFASYNLHWVKQTPGQGLEWIGLIYPENGDTSYNQKFKGKATLTADKSSSTAYIQLSSLTSEDSAVYFCARGGFDYWGQGTTLTVSQ VL: DIQMTQSPASLSASVGETVTITCGASENIYGALNWYQRKQGKSPQLLIYGATNLADGMSSRFSGSGSGRQYSLKISSLHPDDVATYYCQNVLSTPYTFGGGTKLEIK", "Kd", 12.2),
]

# evaluate next
# input Identify the reported Kd for the following entry. 3A12 (antibody, V domains shown) VH: EVQLQQSGAELVKPGASVKMSCKASGYTFSFYNVHWVRQTPGQGLEWIGLIYPDNGDTSYNQKFKAKATLTADKSSSAAYMQLSSLTSEDSAVYYCARGGFDYWGQGTSLTVSS VL: DIVMTQSHKFMSTSVGDRVNITCKASQDVSTAVAWYQQKPGQSPKLLIYSASYRYSGVPDRFTGSGSGTDFTFTISSVQAEDLAVYYCQQHYSTPYTFGGGTKLEMK
# output 2.82
